Could you please report measured IC50 for the items listed next?
Biological target: Prostaglandin G/H synthase 1 (Ovis aries)
Sequence (P05979 whole entry): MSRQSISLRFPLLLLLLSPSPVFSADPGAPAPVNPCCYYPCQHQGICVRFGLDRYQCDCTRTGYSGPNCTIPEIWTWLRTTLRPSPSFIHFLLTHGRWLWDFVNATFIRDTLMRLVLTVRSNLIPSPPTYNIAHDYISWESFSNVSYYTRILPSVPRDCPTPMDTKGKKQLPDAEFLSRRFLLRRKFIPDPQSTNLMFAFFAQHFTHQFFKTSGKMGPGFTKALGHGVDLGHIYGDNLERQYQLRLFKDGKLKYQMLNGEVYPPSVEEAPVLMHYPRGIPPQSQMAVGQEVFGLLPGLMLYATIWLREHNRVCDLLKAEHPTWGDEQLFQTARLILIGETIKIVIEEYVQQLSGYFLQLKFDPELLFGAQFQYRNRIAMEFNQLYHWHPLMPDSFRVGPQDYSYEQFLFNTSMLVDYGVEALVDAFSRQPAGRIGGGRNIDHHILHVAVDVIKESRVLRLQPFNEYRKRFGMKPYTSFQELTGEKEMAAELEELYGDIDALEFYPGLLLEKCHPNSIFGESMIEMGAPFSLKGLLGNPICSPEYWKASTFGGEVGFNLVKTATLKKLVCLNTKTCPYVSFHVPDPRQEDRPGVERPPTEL
Assay: Inhibition of ovine COX-1 using arachidonic acid as substrate in presence of hemin by TMPD reagent-based colorimetry
Answers are plain numbers, in µM.

Example results:
[
  {
    "Compound": "COc1ccc(-c2nnc(CN3CCN(C(c4ccccc4)c4ccc(Cl)cc4)CC3)o2)cc1 (stereo not given)",
    "Value type": "IC50",
    "Measurement unit": "µM",
    "Test result": 34.5
  },
  {
    "Compound": "COc1cccc(-c2nnc(CN3CCN(C(c4ccccc4)c4ccc(Cl)cc4)CC3)o2)c1 (stereo not given)",
    "Value type": "IC50",
    "Measurement unit": "µM",
    "Test result": 36.3
  },
  {
    "Compound": "FC(F)(F)c1ccc(-c2nnc(CN3CCN(C(c4ccccc4)c4ccc(Cl)cc4)CC3)o2)cc1 (stereo not given)",
    "Value type": "IC50",
    "Measurement unit": "µM",
    "Test result": 27
  }
]

Hey, quick one: what's IC50 for each of these?
1. Fc1cc(F)c(-c2nnc(CN3CCN(C(c4ccccc4)c4ccc(Cl)cc4)CC3)o2)cc1F (stereo not given)
2. N#Cc1cccc(-c2nnc(CN3CCN(C(c4ccccc4)c4ccc(Cl)cc4)CC3)o2)c1 (stereo not given)

Response line:
[32.7, 23]

* * *

Target: Prostaglandin G/H synthase 1 (Ovis aries, UniProt P05979)
Assay: Inhibition of ovine COX-1 using arachidonic acid as substrate in presence of hemin by TMPD reagent-based colorimetry
Value type: IC50 (µM)
One number for each entry, in µM.

The cases that follow already have their IC50 on record.
[
  {
    "Compound": "O=[N+]([O-])c1ccccc1-c1nnc(CN2CCN(C(c3ccccc3)c3ccc(Cl)cc3)CC2)o1 (configuration not stated)",
    "Experimental system": "Prostaglandin G/H synthase 1 (Ovis aries, UniProt P05979)",
    "IC50 (µM)": 29.9
  },
  {
    "Compound": "Clc1ccc(-c2nnc(CN3CCN(C(c4ccccc4)c4ccc(Cl)cc4)CC3)o2)cc1 (configuration not stated)",
    "Experimental system": "Prostaglandin G/H synthase 1 (Ovis aries, UniProt P05979)",
    "IC50 (µM)": 34.1
  },
  {
    "Compound": "Clc1ccc(C(c2ccccc2)N2CCN(Cc3nnc(-c4ccccc4)o3)CC2)cc1 (configuration not stated)",
    "Experimental system": "Prostaglandin G/H synthase 1 (Ovis aries, UniProt P05979)",
    "IC50 (µM)": 38.4
  },
  {
    "Compound": "Cc1cccc(-c2nnc(CN3CCN(C(c4ccccc4)c4ccc(Cl)cc4)CC3)o2)c1 (configuration not stated)",
    "Experimental system": "Prostaglandin G/H synthase 1 (Ovis aries, UniProt P05979)",
    "IC50 (µM)": 30.7
  },
  {
    "Compound": "Oc1cccc(-c2nnc(CN3CCN(C(c4ccccc4)c4ccc(Cl)cc4)CC3)o2)c1 (configuration not stated)",
    "Experimental system": "Prostaglandin G/H synthase 1 (Ovis aries, UniProt P05979)",
    "IC50 (µM)": 36.3
  },
  {
    "Compound": "N#Cc1ccc(-c2nnc(CN3CCN(C(c4ccccc4)c4ccc(Cl)cc4)CC3)o2)cc1 (configuration not stated)",
    "Experimental system": "Prostaglandin G/H synthase 1 (Ovis aries, UniProt P05979)",
    "IC50 (µM)": 25.5
  }
]

Prompt line: Look up IC50 for this compound: O=[N+]([O-])c1cc(-c2nnc(CN3CCN(C(c4ccccc4)c4ccc(Cl)cc4)CC3)o2)cc([N+](=O)[O-])c1 (configuration not stated)
Response line: 37.7
